assay: Drug uptake in C57BL/6 mouse blood at 50 mg/kg after 1 hr by LC-MS/MS analysis; assay type: ADME, organism-based; set-up: dose 50 mg/kg; settings: read-out: Drug uptake
parameter: concentration at 1 h (µM)
One number for each entry, in µM.

Provide the reported concentration at 1 h of each entry below, same order.
1. COc1ccnc(N2CCC3(CCCN(Cc4c[nH]c5ccccc45)C3=O)CC2)n1
2. Cc1ccc(-n2nccn2)c(C(=O)N2CCN(c3nc4cc(Cl)ccc4o3)CC[C@H]2C)c1

1. 6.91
2. 10.5

FYI, the data here is from ChEMBL document CHEMBL2434958.
